All figures here come from PubChem BioAssay AID743417.

Here the recorded AC50 is given for each entry.
# Tested on: Clone20 osteoblast Shn3 3'UTR firefly luciferase, 24 h
# experimental.details: Shn3 3'UTR reporter inhibitors, dose response, cell-based, Clone20 osteoblasts, luminescence, dry powder, set 2 (AID 743417)
Results filed as inconclusive are left out. Active and inactive are the calls of the source.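 The calls were made as follows: active = compounds lowering the luciferase signal with a fitted half-maximal dose at most twice their top valid dose (cut at about 30 µM in these data); inconclusive = flat fits with moderate signal loss, or poor fits; inactive = the rest.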
assay.metric: AC50

>>> df
                                    molecule               observed
 0  CCc1ccc(CN(C)C(=O)c2cc(COc3cccc4cnccc34)on2)cc1                1920 nM
 1  Cc1ccc(NC(=O)c2nc(S(=O)(=O)Cc3ccccc3)ncc2Cl)cc1                3420 nM
 2  CC(C)(C)OC(=O)NCCCCCNC(=O)c1nc[nH]c1C(=O)NCc1ccc(CNC(=O)OC(C)(C)C)cc1                3950 nM
 3  Cc1ccc2nc(NNC(=O)c3ccc(S(=O)(=O)N4CCc5ccccc5C4)cc3)sc2c1                1620 nM
 4  COc1cc(NC(=O)COc2cc(O)c3c(c2)OC(C)(C)CC3=O)cc(OC)c1OC                 354 nM
 5          COc1ccccc1C(=O)Nc1nc2ccccc2[nH]1                 868 nM
 6  CCN(CC)C(=O)[C@H]1C[C@H](CC(=O)NC/C=C(\C)CCC=C(C)C)C(=O)N2CCc3c([nH]c4cc(CCC(=O)N(C)C)ccc34)[C@]12C                1370 nM
 7  O=C1N(c2ccccc2)C[C@@H]2C[C@@H](c3cc4ccccc4o3)N3CCC[C@@]123                 536 nM
 8  Cc1ccc(CNC(=O)c2cc(-c3ccccc3C)nn2CC2CC(c3cccnc3)=NO2)cc1 (stereo unspecified)  > 70000 nM (inactive)
 9  CC(C)C1C(=O)N(Cc2cn(CCC3OCCO3)nn2)CCS(=O)(=O)N1Cc1ccc(-c2ccc(Cl)c(Cl)c2)cc1 (stereo unspecified)                1280 nM
10  Cn1c(COc2ccc(Br)cc2)nnc1SC1CCc2ccccc2C1=O (stereo unspecified)               35200 nM
11  C[C@H]1COC(=O)[C@H](NC(=O)OCC2c3ccccc3-c3ccccc32)C/C=C\C[C@H](CC(=O)N(CCO)Cc2ccccc2)C(=O)N1                6080 nM
12  O=C1CCCN2N=C(SCC(=O)Nc3cccc(C(F)(F)F)c3)SC2=N1                4370 nM
13  Cc1cc(C)nc(SCC(=O)Nc2ccc(N3CCOCC3)c(Cl)c2)n1                1660 nM
14     COc1ccc(Cc2nccc3cc(OC)c(OC)cc23)cc1OC                2480 nM
15  COc1cc(NS(=O)(=O)c2ccc(C)cc2C)cc(OC)c1OC                4950 nM
16  COc1ccc(C)cc1NS(=O)(=O)c1ccc(-c2cnc(C3CC3)o2)cc1                3760 nM
17  CCOC(=O)c1c(-c2ccccc2)oc2cc(CN(C)C)c(O)c(CN(C)C)c12                7810 nM
18  Cn1nc(C(C)(C)C)cc1C(=O)NCc1ccc2c(c1)OCO2                1170 nM
19  CCC(=O)N1CCN(c2ccc(NC(=O)c3ccc([N+](=O)[O-])o3)cc2Cl)CC1                 850 nM
20  COC(=O)C1=C(c2ccc(OCc3ccccc3)cc2)C[C@@H]2CC[C@H]1N2C(=O)NCc1ccc(C(C)(C)C)cc1                6840 nM
21  CN(C(=O)OC(C)(C)C)c1ccc(-c2nc3ccccc3s2)cc1               < 260 nM
22  CC1CCCC(NC(=O)c2cccc(S(=O)(=O)N3CCN(c4ccccc4)CC3)c2)C1C (stereo unspecified)                3140 nM
23   Cc1cccc(NS(=O)(=O)c2ccc(C3CCCCC3)cc2)c1                5130 nM
24  O=C(Nc1ccc([N+](=O)[O-])cc1)Nc1ccc(OC(F)F)c(Cl)c1                3590 nM
25      Cc1cc(CN2CCOCC2)c(O)c(C2(C)CCCCC2)c1               32300 nM
26            COc1ccc(CCNc2ncnc3sccc23)cc1OC               < 260 nM
27  CCCCC1(Cc2ccc([N+](=O)[O-])cc2)C(=O)N(c2ccccc2)N(c2ccccc2)C1=O               10200 nM
28  O=C(c1n[nH]c(=O)c2ccccc12)N1CCN(C2c3ccccc3-c3ccccc32)CC1                7690 nM
29  CCOC(=O)c1cnc(-n2nc(C)cc2C)nc1NCc1ccc2c(c1)OCO2                8740 nM
30  CCC1CCCCN1C(=O)c1cc(COc2ccc3ncccc3c2)on1 (stereo unspecified)                 460 nM
31  O=C(Nc1cccc(C(F)(F)F)c1)c1sc(Cl)nc1C(F)(F)F                9060 nM
32  Cc1ccc(CS(=O)(=O)c2ncc(Cl)c(C(=O)Nc3nnc(C(C)C)s3)n2)cc1                1520 nM
33  CC(=O)N1c2ccc(S(=O)(=O)N3CCC(C(=O)N4CCN(c5cccc(C(F)(F)F)c5)CC4)CC3)cc2CC1C (stereo unspecified)                1280 nM
34  Oc1c(CN2CCN(c3ccccc3)CC2)cc(Br)c2cccnc12                1920 nM
35  COc1ccc(CC(N)c2csc(NC(=O)NC(c3ccccc3)c3ccccc3)n2)cc1 (stereo unspecified)                6400 nM
36  CCCC(=O)NC(c1ccc(Cl)cc1)c1ccc2cccnc2c1O (stereo unspecified)                 937 nM
37  CCCCCc1nc2c(c(=O)c3ccccc3n2C)c(=O)n1C1CCCCCC1                8210 nM
38  CCc1nnc(NC(=O)c2nc(S(=O)(=O)Cc3ccccc3)ncc2Cl)s1                2720 nM
39                Oc1c(CN2CCCCC2)ccc2cccnc12                2110 nM
40  O=S(=O)(c1ccccc1)N1CCN(c2cc(-c3ccccc3)nc3ncnn23)CC1                1120 nM

====

# System: Clone20 osteoblast Shn3 3'UTR firefly luciferase, 24 h
# experimental.details: Shn3 3'UTR reporter inhibitors, dose response, cell-based, Clone20 osteoblasts, luminescence, dry powder, set 2 (AID 743417)
Inconclusive results are not listed. Calls of active or inactive are those of the source.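 How the source made its calls: active means compounds lowering the luciferase signal with a fitted half-maximal dose at most twice their top valid dose (cut at about 30 µM in these data); inconclusive means flat fits with moderate signal loss, or poor fits; inactive means the rest.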
assay.metric: AC50

                                    compound            observed
 0  c1ccc(CNc2c(-c3cccc(SC4CCCCC4)c3)nc3ccccn23)cc1             3.46 µM
 1  CN(c1ccccc1)S(=O)(=O)c1cccc(NC(=O)CSc2nncs2)c1             1.44 µM
 2            O=c1oc2ccccc2cc1-c1cn2ccccc2n1             3.64 µM
 3  Cc1nn(-c2ccccc2)c(C)c1C(=O)OC(C)C(=O)NC1CCCCC1 (configuration not stated)             8.19 µM
 4  Cc1ccc2nc(NC(=O)C3CCN(S(=O)(=O)c4ccc5c(c4)oc(=O)n5C)CC3)sc2c1             3.35 µM
 5         O=C(NCCc1ccccc1)c1ccc2c(c1)OCCCO2             1.05 µM
 6     C=CCNc1nc(N2CCOCC2)c(C#N)c2c1CN(C)CC2  > 70 µM (inactive)
 7  COc1ccc(C[C@H]2NC[C@H](O)[C@H]2OC(C)=O)cc1            0.882 µM
 8  Fc1ccc(C(OCCN2CCN(CCCc3ccccc3)CC2)c2ccc(F)cc2)cc1             6.17 µM
 9  Cc1ccc(NC(=O)C2CCC(C(C)(C)C)CC2)cc1S(=O)(=O)N1CCOCC1 (configuration not stated)             12.1 µM
10             O=C(Cc1ccc(Cl)cc1Cl)Nc1ccncc1             2.56 µM
11  C[C@@H]1C[C@@H]([C@H](O)CC2CC(=O)NC(=O)C2)C(=O)[C@@H](C)C1            0.345 µM
12  Clc1ccc(-c2cc(-c3nnc4n3CCCCC4)c3ccccc3n2)cc1             5.59 µM
13  COc1ccccc1CNc1nc(NCc2ccc(C(C)C)cc2)c2sccc2n1             6.81 µM
14  CC(C)(C)NC(=O)NC(=O)CN1CCN(c2ccc(O)cc2)CC1              1.9 µM
15  Cc1ccc(C)c(S(=O)(=O)N2CCN(c3ncnc4sccc34)CC2)c1            0.631 µM
16  C#CC(=O)N(c1cc(OC)ccc1OC)C(C(=O)NC1CCCC1)c1cccs1 (configuration not stated)             4.57 µM
17  CC(=O)c1ccc(NC(=O)C(C)OC(=O)/C=C/c2ccco2)cc1 (configuration not stated)             9.12 µM
18  COc1ccccc1-c1cc(C(F)(F)F)nc(S(C)(=O)=O)n1             4.06 µM
19  O=C(Nc1cccc(C(F)(F)F)c1)Nc1ccc(N2CCCC2)c(S(=O)(=O)Nc2ccccc2Cl)c1             4.42 µM
20           CCOc1ccc(OCc2cccc(C(=O)O)c2)cc1            0.649 µM
21  COc1cccc(CN(C)C(=O)c2ccc(OCC(=O)Nc3cccc(C(F)(F)F)c3)c(OC)c2)c1             4.93 µM
